Test system: Plasma
Assay: Metabolic stability in rat plasma by LC-MS/MS analysis
Type: ADME, cell-free
assay_endpoint: Stability (%)
// note: answer is a bare numeric in %

Known Stability results, listed for orientation:
[[record]]
smiles_str = "COC(=S)NC[C@H]1CN(c2ccc(N3CC[Si](C)(C)CC3)c(F)c2)C(=O)O1"
assay_endpoint = "Stability"
uom = "%"
readout_number = 100

[[record]]
smiles_str = "CC(=O)NC[C@H]1CN(c2ccc(N3CC[Si](C)(C)CC3)c(F)c2)C(=O)O1"
assay_endpoint = "Stability"
uom = "%"
readout_number = 97.3

[[record]]
smiles_str = "CC(=O)NC[C@H]1CN(c2ccc(N3CCOCC3)c(F)c2)C(=O)O1"
assay_endpoint = "Stability"
uom = "%"
readout_number = 100


Field: next compound
Query: Stability of CC(=O)NC[C@H]1CN(c2cc(F)c(N3CC[Si](C)(C)CC3)c(F)c2)C(=O)O1 on Plasma?
Result: 94.7

----------
Experiment: AUC (0 to infinity) in BALB/c mouse plasma at 10 mg/kg, po by LC-MS/MS analysis
Assay type: ADME, organism-based
Design: dose 10 mg/kg, time infinity, route oral
# AUC(0-inf) values compiled below
// note: answer is a bare numeric in ng·h/mL

Known AUC(0-inf) results, listed for orientation:
[[record]]
smiles_str = "CC(=O)NC[C@H]1CN(c2ccc(N3CCOCC3)c(F)c2)C(=O)O1"
uom = "ng·h/mL"
readout_number = 7700

[[record]]
smiles_str = "COC(=S)NC[C@H]1CN(c2ccc(N3CC[Si](C)(C)CC3)c(F)c2)C(=O)O1"
uom = "ng·h/mL"
readout_number = 930

[[record]]
smiles_str = "CC(=O)NC[C@H]1CN(c2cc(F)c(N3CC[Si](C)(C)CC3)c(F)c2)C(=O)O1"
uom = "ng·h/mL"
readout_number = 6210


Field: next compound
Query: GET /values?readout=AUC(0-inf)&item= CC(=O)NC[C@H]1CN(c2ccc(N3CC[Si](C)(C)CC3)c(F)c2)C(=O)O1
Result: 1800

----------
Experiment: Cmax in BALB/c mouse brain at 10 mg/kg, po by LC-MS/MS analysis
Type: ADME, organism-based
Parameters: dose 10 mg/kg, route oral
# Cmax values compiled below
// note: answer is a bare numeric in ng/g

Known Cmax results, listed for orientation:
[[record]]
smiles_str = "COC(=S)NC[C@H]1CN(c2ccc(N3CC[Si](C)(C)CC3)c(F)c2)C(=O)O1"
uom = "ng/g"
readout_number = 1470

[[record]]
smiles_str = "CC(=O)NC[C@H]1CN(c2ccc(N3CC[Si](C)(C)CC3)c(F)c2)C(=O)O1"
uom = "ng/g"
readout_number = 1330

[[record]]
smiles_str = "CC(=O)NC[C@H]1CN(c2cc(F)c(N3CC[Si](C)(C)CC3)c(F)c2)C(=O)O1"
uom = "ng/g"
readout_number = 5580


Field: next molecule
Query: GET /values?readout=Cmax&item= CC(=O)NC[C@H]1CN(c2ccc(N3CCOCC3)c(F)c2)C(=O)O1
Result: 450

----------
# solubility values compiled below
Assay: Solubility of compound at pH 2.2 by HPLC analysis
Assay type: physicochemical
Conditions: buffer
// note: answer is a bare numeric in µM

Known solubility results, listed for orientation:
[[record]]
smiles_str = "COC(=S)NC[C@H]1CN(c2ccc(N3CC[Si](C)(C)CC3)c(F)c2)C(=O)O1"
assay_endpoint = "solubility"
uom = "µM"
readout_number = 47

[[record]]
smiles_str = "CC(=O)NC[C@H]1CN(c2cc(F)c(N3CC[Si](C)(C)CC3)c(F)c2)C(=O)O1"
assay_endpoint = "solubility"
uom = "µM"
readout_number = 43


Query: GET /values?readout=solubility&item= CC(=O)NC[C@H]1CN(c2ccc(N3CC[Si](C)(C)CC3)c(F)c2)C(=O)O1
Result: 50

Cited source for all entries: ChEMBL document CHEMBL3751664
